Assay: Pharmacokinetics of an 801 mg pirfenidone dose taken with or without food
Type: in vivo, human
Conditions: human, plasma, oral, 801 mg, 801 mg pirfenidone without food; read-out: mean absorption half life (converted)
Method: A study was designed to evaluate the effect of food, antacids, and food taken with antacids on adverse events associated with pirfenidone use. The trial was conducted as a randomized, open-label, four-treatment crossover, with a single dose for each treatment period and a 2-day washout period between study treatments. 16 healthy adults between the ages of 50 and 79 years having body mass indices between 18 and 30 (inclusive) were enrolled and completed all 4 treatment arms. […]
measured property: half-life (min)
Report the value in min with no unit label.

Return reported half-life; argument: Cc1ccc(=O)n(-c2ccccc2)c1 [pirfenidone, 5-methyl-1-phenyl-2-(1H)-pyridone]
34.3

Reference source: patent US20070203202A1
